tested on: HCV replicon 1AQ30D; assay: microbe, parasite or virus in culture; assay type: cell-based, Hepatitis C virus (HCV); conditions: Hepatitis C virus, read-out: 1A Q30D IC50 (nM), replicon 1AQ30D; Replicon Assay B
ENDPOINT_NAME: IC50 (nM)
Please give a number only; it is taken to be in nM.

Returns the measured IC50 for the input compound. Input: COC(=O)N[C@H](C(=O)N1[C@@H]2C[C@@H]2C[C@H]1c1ncc(-c2cc(F)c3c(c2)OC(c2ccc(C4CC4)s2)n2c-3cc3cc(-c4cnc([C@@H]5C[C@H]6C[C@H]6N5C(=O)[C@@H](NC(=O)OC)C(C)C)[nH]4)ccc32)[nH]1)C(C)C (single isomer, unassigned)
0.15

Cool, now COC(=O)N[C@H](C(=O)N1CCC[C@H]1c1ncc(-c2cc(F)c3c(c2)OC(c2ccc(-c4ccc(N=[N+]=[N-])cc4)s2)n2c-3cc3cc(-c4cnc([C@@H]5CCCN5C(=O)[C@@H](NC(=O)OC)C(C)C)[nH]4)ccc32)[nH]1)C(C)C (mixture of isomers)
0.7

And for COC(=O)N[C@H](C(=O)N1CCC[C@H]1c1ncc(-c2cc(F)c3c(c2)OC(c2ccsc2)n2c-3cc3cc(-c4cnc([C@@H]5CCCN5C(=O)[C@@H](NC(=O)OC)C(C)C)[nH]4)ccc32)[nH]1)C(C)C (single isomer, unassigned) ?
2.58

Moving on to CCc1ccc(C2Oc3cc(-c4cnc([C@@H]5CCCN5C(=O)[C@@H](NC(=O)OC)C(C)C)[nH]4)cc(F)c3-c3cc4cc(-c5cnc([C@@H]6CCCN6C(=O)[C@@H](NC(=O)OC)C(C)C)[nH]5)ccc4n32)s1 (single isomer, unassigned) [Compound 3]
50.6
